>  <Smiles Structure>
COC(=O)N[C@H](CC(C)C)C(=O)N1CCC[C@H]1c1ncc(-c2ccc(C#CC#Cc3ccc(-c4cnc([C@@H]5CCCN5C(=O)[C@@H](CC(C)C)NC(=O)OC)[nH]4)cc3)cc2)[nH]1

>  <melting point>
129 to 131 °C

$$$$
>  <Smiles Structure>
CCOC(=O)N[C@@H](CC(C)C)C(=O)N1CCC[C@H]1c1ncc(-c2ccc(C#CC#Cc3ccc(-c4cnc([C@@H]5CCCN5C(=O)[C@H](CC(C)C)NC(=O)OCC)[nH]4)cc3)cc2)[nH]1

>  <melting point>
118 to 120 °C

$$$$
>  <Smiles Structure>
CCOC(=O)N[C@H](C(=O)N1CCC[C@H]1c1ncc(-c2ccc(C#CC#Cc3ccc(-c4cnc([C@@H]5CCCN5C(=O)[C@@H](NC(=O)OCC)C(C)C)[nH]4)cc3)cc2)[nH]1)C(C)C

>  <melting point>
139 to 141 °C

$$$$
>  <Smiles Structure>
COC(=O)N[C@H](C(=O)N1CCC[C@H]1c1ncc(-c2cccc(C#CC#Cc3cccc(-c4cnc([C@@H]5CCCN5C(=O)[C@@H](NC(=O)OC)c5ccccc5)[nH]4)c3)c2)[nH]1)c1ccccc1

>  <melting point>
125 to 127 °C

$$$$

# credit: paper PMC9146377
